tested on: DNA synthesis in PDGF-stimulated cells; experiment: Inhibition of cell proliferation as measured by inhibition of DNA synthesis ([3H]thymidine incorporation), PDGF-stimulated cells; assay type: cell-based; conditions: Table IV; PDGF stimulation; [3H]thymidine incorporation halved
Provide the recorded pIC50 for the entries that follow.
API: returns pIC50 as number; meaning -log10 of concentration in mol/L.

Need pIC50, item COc1ccc(C=C(C#N)c2ccccn2)cc1OC
7.85

Also check COc1ccc(C=C(C#N)c2cn(S(=O)(=O)c3ccc([N+](=O)[O-])cc3)c3ccccc23)cc1OC
7.77

Then what about the compound CC(C)(C)c1cc(C=C(C#N)c2ccccn2)cc(C(C)(C)C)c1 ?
8.05

Please answer likewise for N#C/C(=C\c1cc(Cl)cc(Cl)c1)c1ccc[n+]([O-])c1
7.52
